# Tested on: SR
# protocol-summary: Cytotoxicity against human SR cells at 10 uM after 48 hrs by coulter counter analysis
# Type: functional
# conditions: read-out: GI
Documented inhibition of growth at 10 µM across a set of compounds
Give the number; % is assumed, so skip it.

The compound listed as "Nc1ncc(Sc2nc3ccc(Cl)cc3c(=O)n2-c2ccccc2)s1" shows inhibition of growth at 10 µM equal to 29.1

Quick note, inhibition of growth at 10 µM for "COc1cc2nc(Sc3cnc(N)s3)n(-c3ccccc3)c(=O)c2cc1OC" landed at 14.8

For record "Cc1ccc2nc(Sc3cnc(N)s3)n(-c3ccccc3)c(=O)c2c1" the listed inhibition of growth at 10 µM is 37.8

# context switch: different compound, same inhibition of growth at 10 µM
For "COc1cc2nc(Sc3ncccc3C(=O)O)n(Cc3ccccc3)c(=O)c2cc1OC" the compound record lists inhibition of growth at 10 µM as 29.8

* * *

# Test system: Pseudomonas aeruginosa
# protocol-summary: Antimicrobial activity against Pseudomonas aeruginosa at 200 ug after 24 hrs by agar disc diffusion method
# Assay type: functional
# conditions: read-out: DIZ
readout-type: zone of inhibition at 200 µg/disc (mm)
The response must be a number in mm with no trailing unit.

Sample records with zone of inhibition at 200 µg/disc:
Reported zone of inhibition at 200 µg/disc ( "COc1cc2nc(Sc3cnc(N)s3)n(Cc3ccccc3)c(=O)c2cc1OC" ) = 8

Given item "Cc1ccc2nc(Sc3cc([N+](=O)[O-])ccc3C(=O)O)n(Cc3ccccc3)c(=O)c2c1" , the value recorded as its zone of inhibition at 200 µg/disc is 8

So for "Nc1ncc(Sc2nc3ccc(Cl)cc3c(=O)n2-c2ccccc2)s1" , the logged zone of inhibition at 200 µg/disc turned out to be 8

Reported zone of inhibition at 200 µg/disc of "CCOC(=O)c1nc(N)sc1Sc1nc2ccc(Cl)cc2c(=O)n1-c1ccccc1" : 8

Reported zone of inhibition at 200 µg/disc ( "Cc1ccc2nc(Sc3ncccc3C(=O)O)n(-c3ccccc3)c(=O)c2c1" ) = 12

Next:
Recorded zone of inhibition at 200 µg/disc (compound "COc1cc2nc(Sc3ncccc3C(=O)O)n(-c3ccccc3)c(=O)c2cc1OC" ): 8

# compound "CCOC(=O)c1nc(N)sc1Sc1nc2ccc(Cl)cc2c(=O)n1Cc1ccccc1" ; its zone of inhibition at 200 µg/disc = 8

Entry "COc1cc2nc(Sc3ncccc3C(=O)O)n(Cc3ccccc3)c(=O)c2cc1OC" — recorded zone of inhibition at 200 µg/disc = 12

For record "Cc1ccc2nc(Sc3cc([N+](=O)[O-])ccc3C(=O)O)n(-c3ccccc3)c(=O)c2c1" the listed zone of inhibition at 200 µg/disc is 8

The reported zone of inhibition at 200 µg/disc of the compound "COc1cc2nc(Sc3cnc(N)s3)n(-c3ccccc3)c(=O)c2cc1OC" was 14

* * *

# Test system: Staphylococcus aureus
# protocol-summary: Antimicrobial activity against Staphylococcus aureus at 200 ug after 24 hrs by agar disc diffusion method
# Type: functional
# conditions: read-out: DIZ
Recorded zone of inhibition at 200 µg/disc by entry
Unit mm implied. Number only.

Here's what some known entries look like.
Input "Cc1ccc2nc(Sc3cc([N+](=O)[O-])ccc3C(=O)O)n(-c3ccccc3)c(=O)c2c1" . Output zone of inhibition at 200 µg/disc: 8

Query "Cc1ccc2nc(Sc3cc([N+](=O)[O-])ccc3C(=O)O)n(Cc3ccccc3)c(=O)c2c1" yields zone of inhibition at 200 µg/disc of 8

So for "CCOC(=O)c1nc(N)sc1Sc1nc2ccc(Cl)cc2c(=O)n1Cc1ccccc1" , the logged zone of inhibition at 200 µg/disc turned out to be 20

GET /value?item= "COc1cc2nc(Sc3cnc(N)s3)n(Cc3ccccc3)c(=O)c2cc1OC" &field=zone of inhibition at 200 µg/disc returns 17

For "O=C(O)c1ccc([N+](=O)[O-])cc1Sc1nc2ccc(Cl)cc2c(=O)n1-c1ccccc1" the molecule record lists zone of inhibition at 200 µg/disc as 14

The recorded zone of inhibition at 200 µg/disc for entry "COc1cc2nc(Sc3cc([N+](=O)[O-])ccc3C(=O)O)n(Cc3ccccc3)c(=O)c2cc1OC" equals 18

# molecule "COc1cc2nc(Sc3cnc(N)s3)n(-c3ccccc3)c(=O)c2cc1OC" ; its zone of inhibition at 200 µg/disc = 18

Recorded result, "Cc1ccc2nc(Sc3cnc(N)s3)n(-c3ccccc3)c(=O)c2c1" , zone of inhibition at 200 µg/disc: 8

Then there is this molecule:
For reference, reported zone of inhibition at 200 µg/disc for "O=C(O)c1ccc([N+](=O)[O-])cc1Sc1nc2ccc(Cl)cc2c(=O)n1Cc1ccccc1" stands at 8

* * *

Below: a set of entries, each annotated with reported zone of inhibition at 200 µg/disc.
# System: Micrococcus luteus
# protocol-summary: Antimicrobial activity against Micrococcus luteus at 200 ug after 24 hrs by agar disc diffusion method
# Assay type: functional
# conditions: read-out: DIZ
Field format: number, assumed mm, no unit text.

Illustrative cases are given below, each with its answer.
zone of inhibition at 200 µg/disc reading for "Cc1ccc2nc(Sc3cnc(N)s3)n(-c3ccccc3)c(=O)c2c1" : 8

Short answer for "Cc1ccc2nc(Sc3ncccc3C(=O)O)n(Cc3ccccc3)c(=O)c2c1" : zone of inhibition at 200 µg/disc was 12

Reported zone of inhibition at 200 µg/disc ( "Nc1ncc(Sc2nc3ccc(Cl)cc3c(=O)n2-c2ccccc2)s1" ) = 14

The compound identified as "Cc1ccc2nc(Sc3cnc(N)s3)n(Cc3ccccc3)c(=O)c2c1" registered its zone of inhibition at 200 µg/disc at 8

// zone of inhibition at 200 µg/disc value for "COc1cc2nc(Sc3cc([N+](=O)[O-])ccc3C(=O)O)n(Cc3ccccc3)c(=O)c2cc1OC" : 8

Further cases:
Record "CCOC(=O)c1nc(N)sc1Sc1nc2ccc(Cl)cc2c(=O)n1Cc1ccccc1" , field zone of inhibition at 200 µg/disc: 14

So, "CCOC(=O)c1nc(N)sc1Sc1nc2ccc(Cl)cc2c(=O)n1-c1ccccc1" ? Its zone of inhibition at 200 µg/disc was 8

Quick note, zone of inhibition at 200 µg/disc for "Nc1ncc(Sc2nc3ccc(Cl)cc3c(=O)n2Cc2ccccc2)s1" landed at 8

Entry "COc1cc2nc(Sc3cnc(N)s3)n(-c3ccccc3)c(=O)c2cc1OC" — recorded zone of inhibition at 200 µg/disc = 16

compound "O=C(O)c1ccc([N+](=O)[O-])cc1Sc1nc2ccc(Cl)cc2c(=O)n1-c1ccccc1" , zone of inhibition at 200 µg/disc observed: 8

* * *

# System: Staphylococcus aureus
# protocol-summary: Antimicrobial activity against Staphylococcus aureus after 24 hrs by micro-dilution susceptibility method
# Format: functional
Recorded MIC by entry
Give a bare numeral; the unit µg/mL is implied.

// worked examples, MIC included
The recorded MIC for "Nc1ncc(Sc2nc3ccc(Cl)cc3c(=O)n2-c2ccccc2)s1" is 8

The recorded MIC for "COc1cc2nc(Sc3cnc(N)s3)n(-c3ccccc3)c(=O)c2cc1OC" is 8

For "COc1cc2nc(Sc3cc([N+](=O)[O-])ccc3C(=O)O)n(-c3ccccc3)c(=O)c2cc1OC" the compound record lists MIC as 8

More entries:
Given item "Cc1ccc2nc(Sc3ncccc3C(=O)O)n(-c3ccccc3)c(=O)c2c1" , the value recorded as its MIC is 4

MIC measured on "CCOC(=O)c1nc(N)sc1Sc1nc2ccc(C)cc2c(=O)n1Cc1ccccc1" = 2

Lab note: "CCOC(=O)c1nc(N)sc1Sc1nc2ccc(Cl)cc2c(=O)n1Cc1ccccc1" gave MIC of 4

The compound listed as "COc1cc2nc(Sc3ncccc3C(=O)O)n(-c3ccccc3)c(=O)c2cc1OC" shows MIC equal to 4

Note to self: MIC recorded for "COc1cc2nc(Sc3ncccc3C(=O)O)n(Cc3ccccc3)c(=O)c2cc1OC" was 4

Looking up "CCOC(=O)c1nc(N)sc1Sc1nc2ccc(C)cc2c(=O)n1-c1ccccc1" , I found its MIC recorded as 2

Field MIC (entry CC(=O)NS(=O)(=O)c1ccc(N)cc1 [SULFACETAMIDE] ) reads 2

* * *

# System: Escherichia coli
# protocol-summary: Antimicrobial activity against Escherichia coli at 200 ug after 24 hrs by agar disc diffusion method
# Type: functional
# conditions: read-out: DIZ
readout-type: zone of inhibition at 200 µg/disc (mm)
I only need the number, in mm, no unit after it.

Per the records, this compound ( "CCOC(=O)c1nc(N)sc1Sc1nc2ccc(Cl)cc2c(=O)n1-c1ccccc1" ) has zone of inhibition at 200 µg/disc equal to 8

zone of inhibition at 200 µg/disc reported for this compound "CCOC(=O)c1nc(N)sc1Sc1nc2ccc(C)cc2c(=O)n1Cc1ccccc1" : 24

zone of inhibition at 200 µg/disc in this record for "Cc1ccc2nc(Sc3ncccc3C(=O)O)n(-c3ccccc3)c(=O)c2c1" : 16

Consider "O=C(O)c1cccnc1Sc1nc2ccc(Cl)cc2c(=O)n1-c1ccccc1" . Its measured zone of inhibition at 200 µg/disc is 8

Summary for this compound, "Cc1ccc2nc(Sc3cc([N+](=O)[O-])ccc3C(=O)O)n(-c3ccccc3)c(=O)c2c1" : zone of inhibition at 200 µg/disc is 8

zone of inhibition at 200 µg/disc for "COc1cc2nc(Sc3ncccc3C(=O)O)n(Cc3ccccc3)c(=O)c2cc1OC" is 18

Record "O=C(O)c1ccc([N+](=O)[O-])cc1Sc1nc2ccc(Cl)cc2c(=O)n1Cc1ccccc1" , field zone of inhibition at 200 µg/disc: 8

Measured zone of inhibition at 200 µg/disc of "CCOC(=O)c1nc(N)sc1Sc1nc2cc(OC)c(OC)cc2c(=O)n1-c1ccccc1" : 8

zone of inhibition at 200 µg/disc in this record for "COc1cc2nc(Sc3cc([N+](=O)[O-])ccc3C(=O)O)n(-c3ccccc3)c(=O)c2cc1OC" : 22

Short answer for "Cc1ccc2nc(Sc3cc([N+](=O)[O-])ccc3C(=O)O)n(Cc3ccccc3)c(=O)c2c1" : zone of inhibition at 200 µg/disc was 8

---
Reported zone of inhibition at 200 µg/disc of "Nc1ncc(Sc2nc3ccc(Cl)cc3c(=O)n2-c2ccccc2)s1" : 8

Just so you know, measured zone of inhibition at 200 µg/disc for "COc1cc2nc(Sc3cnc(N)s3)n(-c3ccccc3)c(=O)c2cc1OC" came out at 18

Kindly note the recorded zone of inhibition at 200 µg/disc for "Cc1ccc2nc(Sc3ncccc3C(=O)O)n(Cc3ccccc3)c(=O)c2c1" , which is 8

# zone of inhibition at 200 µg/disc (compound: "Cc1ccc2nc(Sc3cnc(N)s3)n(Cc3ccccc3)c(=O)c2c1" ) is 8

Reference source: ChEMBL document CHEMBL2375290
